Header: IC50 / UniProt:P00742 / multiple publications
Please reply with the bare figure in µM and do not write the unit itself.

Worked examples follow.
N=C(N)c1cccc(-c2cccc([C@H](CCCNc3ccncc3)C(=O)O)c2)c1 :: 0.00272
Cc1cccc(NC(=N[C@H]2CCCCN(CC(=O)N3CCCC3)C2=O)NC(=O)c2cccc(F)c2)c1 :: 0.373
Cc1cc(C(=O)Nc2ccc(-c3ccccc3S(N)(=O)=O)cc2)n(-c2cc3ccccc3cc2CN)n1 :: 0.038

Kindly indicate its recorded IC50. Item: `COCCN1CC[C@H](NC(=O)c2cc3cc(Cl)ccc3[nH]2)[C@H](NC(=O)c2nc3c(s2)CN(C)CC3)C1`
0.047
